# Test Target: T1, M14
# T1 construct: also called PD1 mutant M14
# Assay Method Text: scFv-phage ELISA
Endpoint Name: OD490
Write the value as a bare number.

1. PD1-44B5 (antibody, V domains shown, scFv-phage in the screening ELISA; later whole IgG) VH: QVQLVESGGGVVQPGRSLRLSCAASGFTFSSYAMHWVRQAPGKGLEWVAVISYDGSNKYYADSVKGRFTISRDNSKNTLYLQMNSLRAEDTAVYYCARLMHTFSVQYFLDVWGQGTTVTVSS VL: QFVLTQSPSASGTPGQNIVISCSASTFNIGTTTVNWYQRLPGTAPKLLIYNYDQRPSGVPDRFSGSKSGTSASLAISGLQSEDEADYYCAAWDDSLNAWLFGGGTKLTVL
3.7
2. PD1-49B9 (antibody, V domains shown, scFv-phage in the screening ELISA; later whole IgG) VH: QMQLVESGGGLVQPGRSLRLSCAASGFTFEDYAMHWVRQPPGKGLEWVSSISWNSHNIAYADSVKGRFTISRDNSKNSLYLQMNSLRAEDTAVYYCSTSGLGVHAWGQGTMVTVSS VL: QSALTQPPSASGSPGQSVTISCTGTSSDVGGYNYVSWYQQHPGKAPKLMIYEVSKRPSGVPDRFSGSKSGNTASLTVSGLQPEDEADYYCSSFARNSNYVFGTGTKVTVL
3.9
3. PD1-41C9 (antibody, V domains shown, scFv-phage in the screening ELISA; whole IgG in the other assays) VH: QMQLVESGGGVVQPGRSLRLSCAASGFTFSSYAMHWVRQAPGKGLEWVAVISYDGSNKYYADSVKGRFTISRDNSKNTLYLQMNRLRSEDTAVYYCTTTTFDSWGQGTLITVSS VL: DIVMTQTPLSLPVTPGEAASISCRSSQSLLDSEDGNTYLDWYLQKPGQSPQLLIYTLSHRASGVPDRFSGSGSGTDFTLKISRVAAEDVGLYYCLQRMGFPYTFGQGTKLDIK
3.5

Pending binder:
q: Requested field: OD490. Item: PD1-51D9 (antibody, V domains shown, scFv-phage in the screening ELISA; whole IgG in the other assays) VH: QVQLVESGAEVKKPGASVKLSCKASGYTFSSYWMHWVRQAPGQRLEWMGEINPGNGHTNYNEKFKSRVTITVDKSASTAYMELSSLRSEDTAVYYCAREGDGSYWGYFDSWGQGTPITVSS VL: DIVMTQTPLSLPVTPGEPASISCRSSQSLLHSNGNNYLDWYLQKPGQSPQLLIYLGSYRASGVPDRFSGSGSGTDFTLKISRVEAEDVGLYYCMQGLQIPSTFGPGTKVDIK
a: 0.8
